Entry source: ChEMBL document CHEMBL1201862

# System: BT-549
# assay notes: NCI tumour cell line growth inhibition, 48 h
Calls of active or inactive are those of the source. Cut-off read from the data, not from the text of the source: active = GI50 up to about 1.1 µM and inactive = higher.
I would appreciate it if you answered using one of these outcomes: active, inactive

Consider the following illustrative entries.
{"columns": ["molecule", "answer label"],
 "data": [
  ["Cn1cnc2c(sc3nc4ccccc4n32)c1=N", "inactive"],
  ["Nc1c2cc3ccc2nc2ccc(cc12)OCCOCCOCCOCCOCCOCCO3", "inactive"],
  ["c1ccc(CCc2cccnc2)nc1", "inactive"]
]}

Now consider a different molecule.
Hello, I am checking results. What call was entered for COc1ccc([N+](=O)[O-])c2c(NCCCN(C)C)ccnc12 ?
inactive
